These entries and their values trace back to a collection of fitness landscapes (doi:10.1126/science.1257360).

Item-by-item account of enrichment ratio
B1: PhoQ; a variant is named by its letters at X, in order, P23837 (parent)
chain: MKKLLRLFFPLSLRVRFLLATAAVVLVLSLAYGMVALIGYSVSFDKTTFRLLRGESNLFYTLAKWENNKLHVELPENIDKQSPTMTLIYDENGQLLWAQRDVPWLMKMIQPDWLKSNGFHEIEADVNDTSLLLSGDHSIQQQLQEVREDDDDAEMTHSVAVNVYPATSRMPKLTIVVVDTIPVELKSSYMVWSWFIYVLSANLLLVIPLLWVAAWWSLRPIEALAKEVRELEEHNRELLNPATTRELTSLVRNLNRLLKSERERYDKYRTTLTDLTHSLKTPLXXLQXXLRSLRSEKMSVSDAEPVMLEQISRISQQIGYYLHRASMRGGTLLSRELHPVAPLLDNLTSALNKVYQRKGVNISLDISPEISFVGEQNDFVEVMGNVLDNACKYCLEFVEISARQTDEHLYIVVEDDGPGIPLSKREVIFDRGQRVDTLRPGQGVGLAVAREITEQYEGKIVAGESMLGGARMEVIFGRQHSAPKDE

# Variants of: B1
# assay comment: enrichment ratio after two sorts for PhoP signalling (ratio (wild type AVST 3.29)); higher = more functional
# condition notes: with PhoP (E. coli)
The full ranking holds about 140,000 sequences; the median of “enrichment ratio after two sorts for PhoP signalling” is about 0, and the highest 2% start at about 11. What follows is part of a selection rich in the highest values, with near analogues and random picks from the rest.
measurement label: enrichment ratio

> print(dat)
   variant.identifier  measurement.label  meas.value
1                IHDS   enrichment ratio      ≤ 0.25
2                VQSP   enrichment ratio      ≤ 0.25
3                WIAL   enrichment ratio      ≤ 0.25
4                VLES   enrichment ratio      ≤ 0.25
5                QYAI   enrichment ratio      ≤ 0.25
6                WEDV   enrichment ratio      ≤ 0.25
7                PCEP   enrichment ratio      ≤ 0.25
